# System: Hamster
# test.description: Antioxidant activity against microvascular damage in hamster model of cheek pouch submitted to ischemia/reperfusion assessed as inhibition of leaky sites at 3 mg/kg treated by gavage route 30 mins before anesthesia measured after 30 mins of reperfusion by FITC-dextran based microscopy
# Type: functional
# measurement.parameters: Cricetinae, po
Respond with 1 for inhibition in vivo at 3 mg/kg values of 30% and above, -1 for values below.

| molecule | class.name |
| --- | --- |
| Cc1nc2c(-c3ccc(C(F)(F)F)cc3)[nH]c(-c3ccc(O)cc3)cn-2c1=O | -1 |
| COc1ccc(-c2nc(-c3ccc(O)cc3)cnc2N)cc1 | -1 |

Req: Is the recorded value of inhibition in vivo at 3 mg/kg equal to or greater than 30% for this molecule? COc1cc(C(C)=O)ccc1O [APOCYNIN]
Resp: 1

Req: Is the recorded value of inhibition in vivo at 3 mg/kg equal to or greater than 30% for this molecule? "Nc1ncc(-c2ccc(O)cc2)nc1-c1ccc(O)cc1"
Resp: -1

Req: Is the recorded value of inhibition in vivo at 3 mg/kg equal to or greater than 30% for this molecule? "Cc1nc2c(-c3ccc(N(C)C)cc3)[nH]c(-c3ccc(O)cc3)cn-2c1=O"
Resp: -1

Req: Is the recorded value of inhibition in vivo at 3 mg/kg equal to or greater than 30% for this molecule? "Nc1ncc(-c2ccc(O)cc2)nc1-c1ccc(F)cc1"
Resp: 1

Req: Is the recorded value of inhibition in vivo at 3 mg/kg equal to or greater than 30% for this molecule? "COc1ccc(-c2[nH]c(-c3ccc(O)cc3)cn3c(=O)c(C)nc2-3)cc1"
Resp: 1

Req: Is the recorded value of inhibition in vivo at 3 mg/kg equal to or greater than 30% for this molecule? "Cc1nc2c(-c3ccccc3)[nH]c(-c3ccc(O)cc3)cn-2c1=O"
Resp: -1

Req: Is the recorded value of inhibition in vivo at 3 mg/kg equal to or greater than 30% for this molecule? "Nc1ncc(-c2ccc(O)cc2)nc1-c1ccc(C(F)(F)F)cc1"
Resp: -1

Req: Is the recorded value of inhibition in vivo at 3 mg/kg equal to or greater than 30% for this molecule? "Cc1nc2c(-c3ccc(O)cc3)[nH]c(-c3ccc(O)cc3)cn-2c1=O"
Resp: 1

Req: Is the recorded value of inhibition in vivo at 3 mg/kg equal to or greater than 30% for this molecule? "Nc1ncc(-c2ccc(O)cc2)nc1-c1ccccc1"
Resp: -1

Req: Is the recorded value of inhibition in vivo at 3 mg/kg equal to or greater than 30% for this molecule? "Cc1nc2c(-c3ccc(F)cc3)[nH]c(-c3ccc(O)cc3)cn-2c1=O"
Resp: 1

Req: Is the recorded value of inhibition in vivo at 3 mg/kg equal to or greater than 30% for this molecule? "CN(C)c1ccc(-c2nc(-c3ccc(O)cc3)cnc2N)cc1"
Resp: 1
